Origin of the recorded values: ChEMBL document CHEMBL1201862

Item-by-item account of GI50
test system: SK-OV-3; test: NCI tumour cell line growth inhibition, 48 h
Active and inactive are the calls of the source. Cut-off read from the data, not from the text of the source: active = GI50 up to about 1.1 µM and inactive = higher.

Examples from the recorded data:
• OCCNCCN1CCN(CCCN2c3ccccc3Sc3ccc(C(F)(F)F)cc32)CC1 = 33.6 µM (inactive)
• CN1CCN(C(=O)CCC(=O)Nc2cc3c(c4ccccc24)-c2ccc4ccccc4c2C3)CC1 = 1.6 µM (inactive)

# next compound below
Prompt: Consider the compound `CN(c1ccc(C(=O)c2ccc(N(C)S(C)(=O)=O)cc2)cc1)S(C)(=O)=O` and give its measured GI50.
Completion: > 100 µM (inactive)

---

tested on: UACC-257; test: NCI tumour cell line growth inhibition, 48 h
The source made the active and inactive calls. Cut-off read from the data, not from the text of the source: active = GI50 up to about 1.1 µM and inactive = higher.
Your answer must be one of the following: 1 for active, 0 for inactive

These solved cases illustrate the format of a correct answer.
* Cc1c2c(cc3c1[nH]c1ccccc13)C(c1ccc(Cl)cc1)=NCC2 | 1
* CN1C2CCC1C(C(O)c1ccccc1[N+](=O)[O-])C(=O)C2 (stereo not given) | 0
* CCOP(=O)(OCC)/C(C#N)=C\c1cccc2ccccc12 | 0
* CN(C)CC1CCC/C(=C\c2ccc(OC(=O)c3ccc(Cl)cc3)cc2)C1=O (stereo not given) | 0

Now let's try a different one.
Prompt: Entry COC(=O)C1=CO[C@@H](OC2OC(CO)C(O)C(O)C2O)[C@@H]2[C@H](C)[C@@H](O)[C@@H](O)[C@]12O (stereo not given in full) : call = ?
Completion: 0

---

HCT-15 data, read-out GI50
I only need the number, in µM, no unit after it.

- Cc1ccc(/C=C(\NC(=O)c2ccccc2)c2nc3ccccc3[nH]2)cc1: 45.6
- COc1cccc(/C=C2/S/C(=N/Nc3nc(C)c(C(C)=O)s3)NC2=O)c1O: 26.2

--- query ---
Prompt: Looking for the measured GI50 of `CN1CCN(C(=O)CCC(=O)Nc2cc3c(c4ccccc24)-c2ccc4ccccc4c2C3)CC1` , can you help?
Completion: 1.82

---

tested on: UO-31; assay: NCI tumour cell line growth inhibition, 48 h
Calls of active or inactive are those of the source. Rule as the data show it: active = GI50 up to about 1.1 µM and inactive = higher.
List of GI50 values.

Prompt: GI50 for `NN=C(S)Nc1cccc(Cl)c1` ?
Completion: > 100 µM (inactive)

Prompt: Next compound up: `CN(C)/C=C/c1ccnc2c1C(=O)c1ccccc1C2=O`
Completion: 7.48 µM (inactive)

Prompt: Next: `CCCNC(=S)N/N=C/c1cccc(C)n1`
Completion: 17.2 µM (inactive)

Prompt: What do you get for CCOc1cc(C2SCC(=O)N2c2ccc3c(c2)Oc2c(Cl)c4c(c(Cl)c2=N3)Oc2cc(N3C(=O)CSC3c3ccc(O)c(OCC)c3)ccc2N=4)ccc1O (configuration not stated) ?
Completion: 68.1 µM (inactive)

Prompt: Input `Oc1ccc(-c2n[nH]c(S)n2)cc1`
Completion: > 100 µM (inactive)

---

system: SK-MEL-5; experiment: NCI tumour cell line growth inhibition, 48 h
The source made the active and inactive calls. No stated cut-off is given here; in the data, active = GI50 up to about 1.1 µM and inactive = higher.
assay.readout: GI50

Use these answered entries as a reference point.
* Cc1ccc(C)c2c1NC(=O)/C2=N\Nc1ccccc1[N+](=O)[O-] | > 100 µM (inactive)
* O=C1Nc2c(Cl)cc(Cl)cc2/C1=N/NC(=O)c1ccccc1O | 14.8 µM (inactive)
* COc1ccc(C2CC(c3c(O)ccc4ccccc34)=NN2c2ccc([N+](=O)[O-])cc2[N+](=O)[O-])cc1OC (stereo unspecified) | 10.1 µM (inactive)
* CC(C)(C)C(=O)N(C(=S)OCc1ccccn1)c1ccccc1 | 20 µM (inactive)
* CC(C)c1cc(C(C)C)c(P2(=O)CC3C(Cl)(Cl)C3(C)C2)c(C(C)C)c1 (stereo unspecified) | 10.1 µM (inactive)
* Cc1ccc(S(=O)(=O)N/N=C2/C3C(CC2(C)C)C2(C)CCCC3(C)C2O)cc1 (stereo unspecified) | 15.5 µM (inactive)
* COc1ccc2nc3cc(Cl)ccc3c(NCCCCCC(=O)NC(COc3ccc4ccc5cccnc5c4n3)COc3ccc4ccc5cccnc5c4n3)c2c1 | 16.8 µM (inactive)
* CS(=O)(=O)Nc1ccc2ccccc2c1-c1c(NS(C)(=O)=O)ccc2ccccc12 | > 25 µM (inactive)
* Cc1ccc(C(=O)C(C)N)cc1 (stereo unspecified) | > 100 µM (inactive)
* COc1ccc(/N=N/C(=O)NC(CC(C)C)C(N)=O)cc1 (stereo unspecified) | > 62.4 µM (inactive)

Prompt: For O=P(O)(O)CC1OC(CO)C(O)C1O (stereo unspecified) , what is its reported GI50?
Completion: > 100 µM (inactive)

---

system: KM12; test: NCI tumour cell line growth inhibition, 48 h
Activity calls are given as the source filed them. Cut-off read from the data, not from the text of the source: active = GI50 up to about 1.1 µM and inactive = higher.
The following compounds are shown together with reported GI50 values.

Some solved entries appear below for comparison.
• OC1(CCc2ccccc2)COC(C(F)(F)F)(C(F)(F)F)C1 (stereo not drawn) = > 100 µM (inactive)
• O=C(CCCN1CCC(C(O)c2ccc(F)cc2)CC1)c1ccc(F)cc1 (stereo not drawn) = 56.6 µM (inactive)
• COc1cccc(/C=C2/S/C(=N/Nc3nc(C)c(C(C)=O)s3)NC2=O)c1O = 36.2 µM (inactive)
• CC1=C2c3ccccc3N(C(=O)/C=C/C(=O)O)[C@H]2[C@H]2C(=O)OC(=O)[C@H]2C1 = > 10 µM (inactive)
• N#Cc1c(N2CCN(c3ccc([N+](=O)[O-])cc3)CC2)[n+]([O-])c2ccc(-c3ccc([N+](=O)[O-])cc3)cc2[n+]1[O-] = > 83.6 µM (inactive)
• O=C(/C=C/c1ccc(Cl)c(Cl)c1)c1cccc2ccccc12 = 4.4 µM (inactive)
• Cn1c(=O)c2nc3sc4c(n3c2n(C)c1=O)C(=O)c1ccccc1C4=O = > 100 µM (inactive)
• CN(C)N1C(=O)C(=O)N(c2cccc3ccccc23)C1=O = > 10 µM (inactive)
• Oc1ccc(-c2n[nH]c(S)n2)cc1 = > 100 µM (inactive)
• COc1ccc2c(c1)-c1oc3ccccc3c(=O)c1CO2 = 39.5 µM (inactive)

Prompt: Endpoint output: GI50 of `N#Cc1c(-c2ccc(Cl)cc2)c(C#N)c(=O)n(NS(=O)(=O)c2ccccc2)c1O` . Value?
Completion: 23.7 µM (inactive)

Prompt: Same lookup for `O=C1CCCCC/C1=C\c1cccc(Cl)c1` , please.
Completion: 30.8 µM (inactive)

Prompt: Same again, this time with `N[C@]1(C(=O)O)C[C@@H]2C(Br)=NO[C@@H]2C1`
Completion: > 100 µM (inactive)

Prompt: And for `CCN(CC)CCn1c2ccccc2c(=O)c2c(OC)ccc(OC)c21` ?
Completion: 56.9 µM (inactive)

---

As shown below, each of these compounds has a reported GI50 value.
test system: OVCAR-5; experiment: NCI tumour cell line growth inhibition, 48 h
Calls of active or inactive are those of the source. Rule as the data show it: active = GI50 up to about 1.1 µM and inactive = higher.

• COc1nc2c(N3CCCC3)nc(N3CCNCC3)nc2nc1NCc1ccccc1 = 2.61 µM (inactive)
• CS(=O)(=O)Nc1ccc2ccccc2c1-c1c(NS(C)(=O)=O)ccc2ccccc12 = > 25 µM (inactive)
• Cc1cc2ccccc2c[n+]1CC(O)C[n+]1cc2ccccc2cc1C = > 100 µM (inactive)
• CN(N=O)N1C(=O)SCC(c2ccccc2)(c2ccccc2)C1=O = > 100 µM (inactive)
• COc1ccc2c(c1)OC[C@@H]1c3cc(O)c(OCc4ccccc4)cc3O[C@H]21 = 66.5 µM (inactive)

Prompt: What does the record list as GI50 for COC(=O)C1=NC(=S)NC(c2ccccc2)C1c1nc2ccccc2o1 (centres undefined) ?
Completion: > 50 µM (inactive)

Prompt: Same thing, different compound: `COc1ccc2nc3cc(Cl)ccc3c(NCCCCCC(=O)NC(COc3ccc4ccc5cccnc5c4n3)COc3ccc4ccc5cccnc5c4n3)c2c1`
Completion: 24.4 µM (inactive)

Prompt: Continue with `C=COC(=O)N[C@H]1CCc2cc(OC)c(OC)c(OC)c2-c2ccc(SC)c(=O)cc21`
Completion: 0.173 µM (active)

Prompt: Input `Cc1ccc(NC(=O)CCC(CC(=O)C(C)(C)C)=NNC(=O)C(=O)NN)cc1C`
Completion: > 100 µM (inactive)

---

test system: MDA-MB-435; test: NCI tumour cell line growth inhibition, 48 h
Activity calls are given as the source filed them. Rule as the data show it: active = GI50 up to about 1.1 µM and inactive = higher.
assay.readout: GI50

Worked cases, answers included:
- N/C(=N\c1ccccc1Cl)c1ccccc1N: > 100 µM (inactive)
- CC(C)(C)c1cc(C(=O)Nc2cc(Br)c(Br)cc2S(N)(=O)=O)cc(C(C)(C)C)c1O: 12.3 µM (inactive)
- CC(C)(C)[C@H]1NC(=O)CN1C(=O)OCc1ccccc1: > 100 µM (inactive)
- CN(C)/C=C/c1ccnc2c1C(=O)c1ccccc1C2=O: 1.35 µM (inactive)
- CN1CCN(C(=O)CCC(=O)Nc2cc3c(c4ccccc24)-c2ccc4ccccc4c2C3)CC1: 1.51 µM (inactive)

Prompt: Look up GI50 for this molecule: `O=C1Nc2c(Cl)cc(Cl)cc2/C1=N/NC(=O)c1ccccc1O`
Completion: 13.2 µM (inactive)

Prompt: How about `OC(c1ccc2c(c1)OCO2)c1ccc2c(c1)OCO2` ?
Completion: > 100 µM (inactive)

Prompt: And Cc1ccc(OCC2OC(n3cnc4c(Br)nc(Br)nc43)CC2Oc2ccc(C)cc2)cc1 (stereo unspecified) ?
Completion: 5.85 µM (inactive)

Prompt: Try the molecule `Cn1c(=O)c2nc3sc4c(n3c2n(C)c1=O)C(=O)c1ccccc1C4=O`
Completion: > 28.4 µM (inactive)

Prompt: Moving on to the next molecule: `Cc1cc2ccccc2c[n+]1CC(O)C[n+]1cc2ccccc2cc1C`
Completion: > 100 µM (inactive)

Prompt: Ok, now `Clc1ccc(CCn2ccc3ccccc32)c(Cl)c1`
Completion: > 100 µM (inactive)
